Source listed as the kinase profiling compilation of Christmann-Franck et al. (2016).

Read-out record for SGK1 (human) (UniProt O00141): pKi
Would you please state pKi, meaning minus log10 of the concentration in mol/L, as a bare number?

{"Smi": "Cc1n[nH]c2sc(C(=O)NCCc3ccc(Cl)cc3)cc12", "pKi": 5.40}

stdin: Supply measured pKi of COc1cccc([C@H](C)NC(=O)c2ccc(-c3ccncc3)c(C)c2)c1 in your reply.
stdout: 6.50

----------
Read-out record for SGK1 (human) (UniProt O00141): Ki

Known Ki results, listed for orientation:
{"Smi": "CC(C)N(C)C(=O)c1c(-c2ccc3[nH]ncc3c2)nnn1Cc1ccccc1", "Observed result": "0.631 µM"}
{"Smi": "CCc1c(-c2ccc(C(C)(C)O)cc2)[nH]c2nccnc12", "Observed result": "> 10 µM"}
{"Smi": "Cc1cccc(NC(=O)Nc2ccc(-c3csc4c(C#CCCCCCCCCN)cnc(N)c34)cc2)c1", "Observed result": "2 µM"}
{"Smi": "Nc1nccc2scc(-c3ccc(NC(=O)Nc4cccc(Cl)c4)cc3)c12", "Observed result": "> 10 µM"}
{"Smi": "CC(C)Cn1c(N)nc2c(F)cc(-c3c(-c4ccc(F)cc4)nc4sccn34)cc21", "Observed result": "> 10 µM"}
{"Smi": "Nc1nonc1-n1nnc(C(=O)N/N=C/c2ccncc2)c1-c1ccccc1", "Observed result": "> 10 µM"}
{"Smi": "O=c1[nH]cc(I)c2nc(-c3cccc(Cl)c3)cn12", "Observed result": "7.94 µM"}
{"Smi": "COc1cc(Nc2ncc(F)c(Nc3ccc4c(n3)NC(=O)C(C)(C)O4)n2)cc(OC)c1OC", "Observed result": "> 7.94 µM"}

stdin: GET Ki where system = SGK1 (human) (UniProt O00141) and item = O=C(c1cc(-c2ccc3[nH]ncc3c2)on1)N1CCCCC1
Sequence (O00141 whole entry, looked up): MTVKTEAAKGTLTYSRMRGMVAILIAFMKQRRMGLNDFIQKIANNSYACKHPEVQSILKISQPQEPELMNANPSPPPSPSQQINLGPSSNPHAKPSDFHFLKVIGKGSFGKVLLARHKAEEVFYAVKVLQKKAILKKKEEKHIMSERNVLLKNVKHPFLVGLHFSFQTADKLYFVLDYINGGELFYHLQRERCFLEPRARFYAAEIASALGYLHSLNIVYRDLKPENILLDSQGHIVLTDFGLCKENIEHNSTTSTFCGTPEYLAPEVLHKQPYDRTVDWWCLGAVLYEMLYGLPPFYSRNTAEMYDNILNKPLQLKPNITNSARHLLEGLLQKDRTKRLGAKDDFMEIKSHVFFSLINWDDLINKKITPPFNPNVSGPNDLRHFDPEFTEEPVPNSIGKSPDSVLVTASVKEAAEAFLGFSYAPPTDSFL
stdout: > 10 µM

stdin: GET Ki where system = SGK1 (human) (UniProt O00141) and item = COCCOCC#Cc1cc(-c2n[nH]c3c2C(=O)c2cc(CN4CCN(C)CC4)ccc2-3)cs1
stdout: > 10 µM
